Quick list: GI50 per entry.
test system: HT-29; assay: NCI tumour cell line growth inhibition, 48 h
Active and inactive are the calls of the source. No stated cut-off is given here; in the data, active = GI50 up to about 1.1 µM and inactive = higher.

| compound | assay-target | GI50 |
| --- | --- | --- |
| O=c1[nH]c(-c2ccccc2)nc2c1sc1nc3ccccc3n12 | HT-29 | > 100 µM (inactive) |
| CCOC(=O)c1sc2ncnc(N)c2c1C | HT-29 | 18.2 µM (inactive) |
| N[C@@H](Cc1ccccc1)C(=O)N1CCC[C@@H]1P(=O)(Oc1ccccc1)Oc1ccccc1 | HT-29 | 86.3 µM (inactive) |
| Nc1nc2c(ncn2Cc2ccccc2CO)c(=O)[nH]1 | HT-29 | > 100 µM (inactive) |
| COc1cc2c(cc1OC)C1C[C@]3(CCN1CC2)C(=O)N(c1ccccc1)C(=O)N3C(C)=O (some centres undefined) | HT-29 | > 200 µM (inactive) |
| CCOP(=O)(OCC)/C(C#N)=C/c1ccc(-c2cc(C(F)(F)F)cc(C(F)(F)F)c2)o1 | HT-29 | 6.55 µM (inactive) |
| NCCCNCCSP(=O)(O)O | HT-29 | > 750 µM (inactive) |
| CC1(C)C(O)c2ccccc2OC1N1CCN(C2Oc3ccccc3C(O)C2(C)C)CC1 (centres undefined) | HT-29 | > 100 µM (inactive) |
| O=c1c(Br)cc2nc3ccccc3sc-2c1Br | HT-29 | > 100 µM (inactive) |
| Cc1nnc2c3c(-c4ccccc4)c(-c4ccccc4)oc3nc(N(C)C)n12 | HT-29 | 33.2 µM (inactive) |
| C=CCC1(OCc2ccccc2)C(=O)C(=O)OC1C1COC(C)(C)O1 (centres undefined) | HT-29 | > 100 µM (inactive) |
| CC1=NN(C(=O)CC(=O)Nc2cccc(C)c2)C(=O)C1/N=N/c1ccc(C(=O)O)cc1 (centres undefined) | HT-29 | > 100 µM (inactive) |
| CC1(C)C(c2ccccc2)=NN(O)c2ccccc21 | HT-29 | > 100 µM (inactive) |
| C1=Nc2ccccc2Cn2nncc21 | HT-29 | 45.6 µM (inactive) |
